target: human chemokine receptor 2 isoform B (CCR2B) (Homo sapiens); experiment: Calcium mobilization assay; conditions: CHOK1-CCR2B-A5 cells, 20 nM MCP-1, FLIPR
Sequence (P41597 1-360 isoform P41597-2): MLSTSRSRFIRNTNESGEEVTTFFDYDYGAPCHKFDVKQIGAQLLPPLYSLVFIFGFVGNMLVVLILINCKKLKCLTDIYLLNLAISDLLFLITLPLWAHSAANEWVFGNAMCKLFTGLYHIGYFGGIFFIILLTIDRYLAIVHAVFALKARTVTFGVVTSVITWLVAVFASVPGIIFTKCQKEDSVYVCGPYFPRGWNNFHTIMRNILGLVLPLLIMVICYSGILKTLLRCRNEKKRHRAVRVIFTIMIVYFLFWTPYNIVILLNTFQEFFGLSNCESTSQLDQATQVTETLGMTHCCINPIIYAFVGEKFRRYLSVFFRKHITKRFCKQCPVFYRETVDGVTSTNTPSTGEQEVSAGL
pIC50: −log10 of the molar value.
quantity_kind: pIC50

{"compound": "Cc1c(C(=O)N2CCC(N3CCC[C@H]3CO)CC2)c(-c2ccncc2)nn1-c1cccc(OC(F)(F)F)c1 [Example 161]", "measured_result": 7.01}
{"compound": "Cc1nn(-c2cccc(OC(F)(F)F)c2)c(C2CC2)c1C(=O)N1CCC(N2CCC3(C2)NC(=O)NC3=O)CC1 (centres unmarked) [Example 139]", "measured_result": 6.85}
{"compound": "CC(=O)N[C@@H]1CCN(C2CCN(C(=O)c3c(C)nn(-c4cccc(OC(F)(F)F)c4)c3C)CC2)C1 [Example 119]", "measured_result": 6.51}
{"compound": "Cc1nn(-c2cccc(OC(F)(F)F)c2)c(C2CC2)c1C(=O)N1CCC(N2C[C@@H](O)CC2C)CC1 (stereo in doubt) [Example 138]", "measured_result": 6.81}
{"compound": "Cc1nn(-c2cccc(C(F)(F)F)c2)c(C)c1C(=O)N1CCC(N2CCOCC2)CC1 [Example 83]", "measured_result": 6.18}
{"compound": "CCN(CC)C1CCN(C(=O)c2c(C)nn(-c3cccc(/C=C/c4ccc(Cl)cc4)c3)c2C)C1 (centres unmarked) [Example 29]", "measured_result": 7.00}

1. O=C(c1c(C2CC2)nn(-c2cccc(OC(F)(F)F)c2)c1C1CC1)N1CCC(N2CCCC2)CC1 [Example 76]
2. Cc1nn(-c2cccc(OC(F)(F)F)c2)c(C)c1C(=O)N1CCC(N2CCCC2C)C1 (centres unmarked) [Example 122]
input: Task for the reader: decide whether 1 or 2 has the larger pIC50. # answer = label of selected item
output: 1
(1: 6.91, 2: 6.14)
